Tested on: SN12C renal
Assay: NCI tumour cell line growth inhibition, 48 h
Assignment: determine reported TGI for the given compounds.

Per the record, `COc1cc(C2=C(c3cn(C)c4ccccc34)COC2=O)cc(OC)c1OC` has TGI of > 100 µM

Per the record, `C[C@H](N)C(=O)Nc1ccc(-c2nc3ccccc3s2)cc1` has TGI of 56 µM

Per the record, O=C1NC(N/N=C/C(O)C(O)C(O)CO)=N/C1=C\c1ccco1 (stereo not drawn) has TGI of > 100 µM

----------
System: HOP-92 NSCLC
Assay: NCI tumour cell line growth inhibition, 48 h
reported_metric: TGI

Per the record, `Cc1cc(C)cc(Nc2cc(=O)[nH]c(=O)[nH]2)c1` has TGI of > 100 µM

Per the record, CCC1(C)N=C(c2cnccn2)NN1c1ccc(Cl)cc1 (stereo not drawn) has TGI of > 100 µM

Per the record, O=C(NC(Cc1ccc(I)cc1)C(=O)O)c1ccc(Br)cc1 (stereo not drawn) has TGI of > 100 µM

Per the record, C=C1C(=O)O[C@H]2/C=C(/C)C3=CC(=O)[C@@](C)(C[C@@H](OC(=O)/C(C)=C\C)C12)O3 (stereo partly drawn) has TGI of 2.07 µM

Per the record, `CN1NC(=Nc2ccccc2)Sc2c1cnn(-c1ccccc1)c2=O` has TGI of > 100 µM

Per the record, `Cc1ccc([C@H]2CC(=O)C[C@H](c3ccc(C)cc3)C23C(=O)c2ccccc2C3=O)cc1` has TGI of 49.7 µM

Per the record, CC(C)(C=O)CC(C#N)/C(=N\NC(N)=O)C(=O)Nc1ccccc1C(N)=O (stereo not drawn) has TGI of > 100 µM

Per the record, `CCCCOC(=O)NC(=O)c1cn(CCCOC(=O)NCCCCCCNC(=O)OCCCn2cc(C(=O)NC(=O)OCCCC)c(=O)[nH]c2=O)c(=O)[nH]c1=O` has TGI of > 100 µM

----------
System: TK-10 renal
Assay: NCI tumour cell line growth inhibition, 48 h
Assignment: determine reported TGI for the given molecules.

Per the record, `COC(=O)[C@@H]1CCCN1CCN1CCC[C@H]1C(=O)OC` has TGI of > 100 µM

Per the record, `COc1cccc(/C(COc2ccc3c(c2)oc(=O)c2cc(OC)ccc23)=N/O)c1` has TGI of > 100 µM

Per the record, C=C1C(=O)O[C@H]2/C=C(/C)C3=CC(=O)[C@@](C)(C[C@@H](OC(=O)/C(C)=C\C)C12)O3 (stereo not given in full) has TGI of 1.6 µM

Per the record, NP(=O)(OCC1=CC(=O)c2ccccc2C1=O)N(CCBr)CCBr (stereo not given) has TGI of 33.1 µM

Per the record, NC(CS/C(Cl)=C/Cl)C(=O)O (stereo not given) has TGI of > 100 µM

Per the record, OCC1OC(n2cnc3c(Cl)nc(Nc4ccccc4)nc32)CC1O (stereo not given) has TGI of > 100 µM

Per the record, `N#C/C(=C/N1CCN(C(=O)c2ccco2)C1=S)C(=O)c1ccccc1` has TGI of 28.8 µM

Per the record, `NC(=O)NNC(=O)c1nc[nH]c1[N+](=O)[O-]` has TGI of > 100 µM

Per the record, `COc1ccc(Nc2nc(NS(=O)(=O)c3cc(C)c(Cl)cc3S)n[nH]2)cc1` has TGI of > 100 µM

Per the record, `O=c1[nH]/c(=C/c2ccc(OCc3ccccc3)cn2)c(=O)[nH]/c1=C/c1ccc(O)cc1` has TGI of 3.03 µM

Per the record, `O=C(O)CC[N+]1=CCC(c2ccccc2)(c2ccccc2)O1` has TGI of > 100 µM

Per the record, `C[C@]12CCc3nc(Nc4ccccc4)sc3C1=CC[C@@H]1[C@@H]2CC[C@]2(C)/C(=N/NC(N)=S)CC[C@@H]12` has TGI of > 100 µM

Per the record, `CCN1C(=O)C(=C/C=C/c2ccc([N+](=O)[O-])cc2)C(=O)N(CC)C1=S` has TGI of 37.8 µM

Per the record, `COc1cc2c3c(n(CCCN(C)C)c(=O)c2cc1OC)-c1ccccc1C3=O` has TGI of > 100 µM

Per the record, O=C1[C@H]2ON(c3ccccc3)C(c3ccc(Cl)cc3)[C@H]2C(=O)N1c1ccc(Cc2ccc(N3C(=O)[C@@H]4ON(c5ccccc5)C(c5ccc(Cl)cc5)[C@@H]4C3=O)cc2)cc1 (stereo not given in full) has TGI of > 100 µM

Per the record, `COc1ccc(Nc2c3ccccc3nc3occ(Cl)c23)cc1` has TGI of 8.67 µM

Per the record, Nc1ccn(C2(CO)C=C(CO)C(O)C2O)c(=O)n1 (stereo not given) has TGI of > 25.8 µM

Per the record, O=C1NC(N/N=C/C(O)C(O)C(O)CO)=N/C1=C\c1ccco1 (stereo not given) has TGI of > 100 µM

Per the record, `O=c1[nH]nc(Cc2ccc([N+](=O)[O-])cc2)n1CCO` has TGI of > 100 µM

Per the record, `CN(CCCNC(=O)Cc1ccc2ccc3cccc4ccc1c2c34)CCCNc1cc(-c2ccc3ccccc3c2)nc2ccccc12` has TGI of 3.02 µM

Per the record, `Oc1cn(-c2ccc(Cl)cc2)nc1-c1n[nH]c(=S)n1C1CCCCC1` has TGI of 34.1 µM

Per the record, `CN[C@@H](C)[C@H](NC)c1ccccc1` has TGI of > 100 µM

Per the record, `O=C1c2ccccc2-c2nc(-c3cccc([N+](=O)[O-])c3)nnc21` has TGI of 39.5 µM

Per the record, `O=c1c2ncn(COCCCl)c2n(-c2ccccc2)c(=S)n1-c1ccccc1` has TGI of > 100 µM

Per the record, `CC(=O)/C=C/c1ccc(C#Cc2ccccc2)s1` has TGI of 32.9 µM

Per the record, `CN1NC(=Nc2ccccc2)Sc2c1cnn(-c1ccccc1)c2=O` has TGI of > 100 µM

Per the record, COC(=O)/C(C#N)=C1\CCC(O)N1 (stereo not given) has TGI of > 100 µM

Per the record, CC(C)CCCC(C)[C@H]1CCC2[C@H]3C(CC[C@@]21C)[C@@]1(C)CCC=C[C@]12C[C@@H]2[C@@H]3O (stereo not given in full) has TGI of > 100 µM

Per the record, `COC(=O)/C(C)=C/[N+](=O)[O-]` has TGI of 31.1 µM

Per the record, `CN(O)C(=O)c1cccc(Cl)c1` has TGI of > 100 µM

----------
Assignment: determine reported TGI for the given compounds.
Test system: 786-0 renal
Assay: NCI tumour cell line growth inhibition, 48 h
Field: numeric (µM). Do not append units.

Item `[Au+].[Au+].[Au+].[c-]1nccn1Cc1ccccc1.[c-]1nccn1Cc1ccccc1.[c-]1nccn1Cc1ccccc1` was tested on 786-0 renal; the reported TGI is 3.11

Item `COC(=O)/C(C)=C/[N+](=O)[O-]` was tested on 786-0 renal; the reported TGI is 32.3

Item `COc1ccc2[nH]c3c4c(ccc3c2c1)C(=O)C=CC4=O` was tested on 786-0 renal; the reported TGI is 24.2

Item `CN(C)Cc1cc(C(=O)/C=C/c2ccccc2Cl)cc(CN(C)C)c1O` was tested on 786-0 renal; the reported TGI is 21.4

----------
Assignment: determine reported TGI for the given compounds.
System: SW-620 colon
Assay: NCI tumour cell line growth inhibition, 48 h

Per the record, `NC(N)=NCCCCCNc1noc(Cc2c[nH]c3cc(Br)ccc23)n1` has TGI of > 100 µM

Per the record, NP(=O)(OCC1=CC(=O)c2ccccc2C1=O)N(CCBr)CCBr (stereo unspecified) has TGI of > 34.2 µM

Per the record, `NC(=O)NNC(=O)c1nc[nH]c1[N+](=O)[O-]` has TGI of > 100 µM

Per the record, `COC(=O)C1=C2SCc3cccc(c3)CSC3=C(C(=O)OC)SC(=C(S2)S1)S3` has TGI of > 100 µM

Per the record, O=C1NC(N/N=C/C(O)C(O)C(O)CO)=N/C1=C\c1ccco1 (stereo unspecified) has TGI of > 100 µM

Per the record, `CCOc1ccc(-c2nc(-c3oc4ccccc4c(=O)c3OC(C)=O)cs2)cc1` has TGI of > 10 µM

Per the record, `CCOC(=O)/C=C(\C(=O)OCC)n1cc(C)c(=O)n(Cc2cnnn2CCCCOC(C)=O)c1=O` has TGI of > 38.4 µM

Per the record, O=c1[nH]c2cc(Cl)ccc2nc1/C(=N\O)C(O)c1ccc(Cl)cc1Cl (stereo unspecified) has TGI of > 100 µM

Per the record, `NC1=NS(=O)(=O)Nc2nc(-c3ccc([N+](=O)[O-])o3)[nH]c21` has TGI of 35.4 µM

Per the record, `CCc1ccccc1NC(=O)c1sc2nc3c(cc2c1N)C(=O)CCC3` has TGI of > 100 µM

Per the record, `COc1ccc(C(=O)COc2cccc(/C=C3\Oc4ccc5ccccc5c4C3=O)c2)cc1` has TGI of 3.77 µM

Per the record, `CNC(=O)Oc1ccc(-c2cn3cc(OC(=O)NC)ccc3n2)cc1` has TGI of > 100 µM

Per the record, Cc1cc(C)c(C2[C@H]3C(=O)N(c4ccc(Cc5ccc(N6C(=O)[C@@H]7ON(c8ccccc8)C(c8c(C)cc(C)cc8C)[C@@H]7C6=O)cc5)cc4)C(=O)[C@H]3ON2c2ccccc2)c(C)c1 (stereo partly specified) has TGI of > 100 µM

Per the record, `COc1ccc2[nH]c3c4c(ccc3c2c1)C(=O)C=CC4=O` has TGI of 6.63 µM

Per the record, `CC(C)S(=O)(=O)c1ccccc1Nc1nc(Nc2cccc(NC(=O)CN)c2)ncc1Cl` has TGI of 4.09 µM

Per the record, `CN1NC(=Nc2ccccc2)Sc2c1cnn(-c1ccccc1)c2=O` has TGI of > 100 µM

Per the record, `COc1ccc2nc3ccccc3c(NCCCCCCN(CCCl)CCCl)c2c1` has TGI of 0.472 µM

Per the record, `O=c1c2ncn(COCCCl)c2n(-c2ccccc2)c(=S)n1-c1ccccc1` has TGI of > 100 µM

Per the record, `Nc1c(Cl)ncnc1N[C@@H]1C[C@H]1CO` has TGI of > 100 µM

Per the record, `Cc1c(C2=C(Br)C(=O)N(C)C2=O)c(=O)n(C)c(=O)n1C` has TGI of > 100 µM

Per the record, `Cc1ccn2c(=O)cc(-c3ccccc3)nc2c1` has TGI of > 100 µM

Per the record, `O=C(COc1ccc(/C=C2\CSc3ccccc3C2=O)cc1)Nc1nccs1` has TGI of 7.12 µM

Per the record, `COC(=O)C1=C(C(=O)OC)SC2(S1)C1=C(CCCC1)SC(C(=O)OC)=C2C(=O)OC` has TGI of 17.1 µM

Per the record, `N#CC(=NCCO)C1=C(O)c2ccccc2C1=O` has TGI of > 100 µM

Per the record, `COC(=O)/C(C=O)=C/Sc1ccccc1` has TGI of > 100 µM

Per the record, CCCC(C)NC1=C(NC(C)=O)C(=O)c2ccccc2C1=O (stereo unspecified) has TGI of > 100 µM

Per the record, `N=C(N)c1ccc(N=Nc2c(O)ccc3c2[nH]c2ccccc23)cc1` has TGI of 4.85 µM

Per the record, `COc1ccc(/C=N/N=C(\N)NO)c(O)c1` has TGI of > 10 µM

Per the record, `COc1ccc(O)cc1` has TGI of > 100 µM

Per the record, Cc1cc(C2CC(O)C(CO)O2)cc2c(=O)[nH]c(N)nc12 (stereo unspecified) has TGI of > 100 µM

Per the record, `O=[N+]([O-])c1ccc2c(c1)C(c1ccccc1Cl)=Nc1cn[nH]c1N2` has TGI of > 25 µM

Per the record, `O=C(Cc1ccccc1)NN1C(=O)/C(=C\c2cccc(O)c2)SC1=Nc1ccccc1` has TGI of > 100 µM

Per the record, CC(C)(C=O)CC(C#N)/C(=N\NC(N)=O)C(=O)Nc1ccccc1C(N)=O (stereo unspecified) has TGI of > 100 µM

Per the record, `Cc1ccc(S(=O)(=O)OCC(=O)O)cc1` has TGI of > 100 µM

Per the record, CN(C)c1ccc(C2SCC(=O)N2NS(=O)(=O)c2cccc(C(=O)O)c2)cc1 (stereo unspecified) has TGI of > 100 µM

Per the record, `c1cc2nnnn2nc1N1CCCC1` has TGI of > 100 µM
